Test: Quantitative highthroughput screen to assess conditional lethalithy of SEM cells grown in RPMI1640 with dialyzed fetal bovine serum (RPMI+ds) (AID 1963884); further: nearly all actives have a fitted effect of over 35% in size;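 on viability: 100% = DMSO control wells and 0% = empty wells without cells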
Conditions: SEM B-ALL cells, RPMI+dialyzed FBS, CellTiter-Glo viability, 48 h; series mostly up to 45.8 µM
Records with an inconclusive call do not appear. Active and inactive are the calls of the source. The call rests on the fitted dose curve; in most records, active means well fitted cell-killing curve with a large enough effect; inconclusive means small, poorly fitted or top-dose-only effect, or effect the other way; inactive means no such curve, though single readings can be large or run the other way.
Possible outcomes: active, inactive

entry_smiles	class_name
O=C(Nc1nnc(-c2ccco2)o1)c1cc(-c2ccccc2)nc2ccccc12	active
C1Cc2[nH]nc(-c3nn[nH]n3)c2C1	inactive
CN[C@@H](C)[C@H]1[C@H](O)C[C@@]2(C)[C@@H]3CC[C@H]4C(C)(C)[C@@H](NC)CC[C@@]45C[C@@]35CC[C@]12C	inactive
C[C@H](Cn1cnc2c(N)ncnc21)OCP(=O)(O)O	inactive
CC(=O)N1CCN(c2ccc(OCc3nn(C)c(C)c3-c3cccc4c(CCCOc5cccc6ccccc56)c(C(=O)O)n(Cc5cccnc5)c34)cc2)CC1	inactive
CNS(=O)(=O)Cc1ccc2[nH]cc(CCN(C)C)c2c1	inactive
CC[C@H]1OC(=O)[C@H](C)C(=O)[C@H](C)[C@@H](O[C@H]2O[C@H](C)C[C@H](N(C)C)[C@@H]2O)[C@](C)(OC)C[C@@H](C)C(=O)[C@H](C)[C@H]2N(CCCCn3cnc(-c4cccnc4)c3)C(=O)O[C@]12C	inactive
Cc1cc(Nc2cc(N3CCN(C)CC3)nc(C=Cc3ccccc3)n2)n[nH]1	active
Cc1cc(-c2ncc(CC(=O)Nc3ccc(-c4cnccn4)cn3)cc2C)ccn1	inactive

----------
Experiment: Viability qHTS for spleen associated tyrosine kinase inhibitor (SYKi) drug resistant MV4-11 cells (AID 1963824); further: nearly all actives have a fitted effect of over 35% in size
Details: SYKi-resistant MV4-11 viability, CellTiter-Glo, 72 h; series mostly up to 45 µM
Inconclusive results are not listed. Calls of active or inactive are those of the source. The call rests on the fitted dose curve; in most records, active means well fitted cell-killing curve with a large enough effect; inconclusive means small, poorly fitted or top-dose-only effect, or effect the other way; inactive means no such curve, though single readings can be large or run the other way.
measurement_label: viability, % of control

compound	value_measured
C/C=C(\C)C(=O)OCC1OC(OC2OC(COC(=O)/C(C)=C/C)C(OC3OC(CO)C(OC(=O)/C(C)=C/C)C(OC(=O)/C(C)=C/C)C3O)C(O)C2O)C(O)C(O)C1OC1OC(CO)C(OC(=O)/C(C)=C/C)C(OC(=O)/C(C)=C/C)C1O (stereo not drawn)	58.7% [at 9.25 µM] (inactive)
CC(C)=CCC[C@](C)(O[C@@H]1O[C@H](CO[C@@H]2O[C@H](CO)[C@@H](O)[C@H](O)[C@H]2O)[C@@H](O)[C@H](O)[C@H]1O)C1CC[C@]2(C)[C@@H]1[C@H](O)CC1[C@@]3(C)CC[C@H](O[C@@H]4O[C@H](CO)[C@@H](O)[C@H](O)[C@H]4O[C@@H]4O[C@H](CO)[C@@H](O)[C@H](O)[C@H]4O)C(C)(C)[C@@H]3CC[C@]12C (stereo partly drawn)	69.6% [at 9.25 µM] (inactive)
COC(=O)[C@@]1(C)CC[C@]2(C(=O)O[C@@H]3O[C@H](CO)[C@@H](O)[C@H](O)[C@H]3O)CC[C@]3(C)C(=CCC4[C@@]5(C)CC[C@H](O[C@@H]6O[C@H](C(=O)O)[C@@H](O)[C@H](O)[C@H]6O)C(C)(C)C5CC[C@]43C)[C@@H]2C1 (stereo partly drawn)	81.9% [at 9.25 µM] (inactive)
COc1cc(C)c(C(=O)NC2C(C)OC(OC3CCC(C)C4C3C=C(C)C3/C(C)=C\CC/C(C)=C/C5(C)C=C(C(=O)O)C(C)CC56OC(=O)/C(=C(\O)C34C)C6=O)C(O)C2(C)O)c(O)c1 (stereo not drawn)	77% [at 9.25 µM] (inactive)
CNC(=O)[C@H]1O[C@@H](n2cnc3c(NCc4ccc(N)c(I)c4)ncnc32)[C@H](O)[C@@H]1O	80.4% [at 9.25 µM] (inactive)
CO[C@H]1C=C2C(CC[C@H](O[C@@H]3O[C@H](CO)[C@@H](O)[C@@H](O)[C@H]3O)C2(C)C)[C@]2(C)CC[C@]3(C)C([C@H](C)C(O)C(C=C(C)C)O[C@@H]4O[C@H](CO)[C@@H](O)[C@@H](O)[C@H]4O)CC[C@@]3(C)C12 (stereo partly drawn)	90.7% [at 9.25 µM] (inactive)
C[C@@H]1O[C@@H](O[C@H]2[C@H](O[C@H]3[C@H](O[C@H]4CC[C@@]5(C)C(CC[C@]6(C)C5CC=C5[C@@H]7CC(C)(C)C[C@@H](O)[C@]7(C)CC[C@]56C)[C@@]4(C)CO)O[C@H](C(=O)O)[C@@H](O)[C@@H]3O)OC[C@H](O)[C@@H]2O)[C@H](O)[C@H](O)[C@H]1O (stereo partly drawn)	84.4% [at 9.25 µM] (inactive)
C[C@@H]1O[C@@H](O[C@H]2[C@H](O[C@H]3[C@H](O[C@H]4CC[C@@]5(C)C(CC[C@]6(C)C5CC=C5[C@@H]7CC(C)(C(=O)O)C[C@@H](O)[C@]7(C)CC[C@]56C)[C@@]4(C)CO)O[C@H](C(=O)O)[C@@H](O)[C@@H]3O)O[C@H](CO)[C@H](O)[C@@H]2O)[C@H](O)[C@H](O)[C@H]1O (stereo partly drawn)	77.5% [at 9.25 µM] (inactive)

----------
Assay: Quantitative highthroughput screen to assess conditional lethalithy of SEM cells grown in Human Plasma-Like Medium with dialyzed fetal bovine serum (HPLM+ds) (AID 1963882); further: nearly all actives have a fitted effect of over 35% in size
Conditions: SEM B-ALL cells in HPLM+ds, CellTiter-Glo viability, 48 h; series mostly up to 45.8 µM
Results filed as inconclusive are left out. The source made the active and inactive calls. Calls come from the whole dose curve; as a rule, active = well fitted cell-killing curve with a large enough effect; inconclusive = small, poorly fitted or top-dose-only effect, or effect the other way; inactive = no such curve, though single readings can be large or run the other way.
Possible outcomes: true (1) for active, false (0) for inactive

compound	class_name
CCC(CC)[C@H](NC(C)=O)[C@@H]1[C@H](O)[C@@H](C(=O)O)C[C@@H]1N=C(N)N	false (0)
CN1C(C(=O)Nc2ccccn2)=C(O)c2sc(Cl)cc2S1(=O)=O	false (0)
C=CC(=O)Nc1cccc(Oc2nc(Nc3ccc(N4CCN(C)CC4)cc3)ncc2Cl)c1	true (1)
C[C@]12CC[C@H](O)CC1=CC[C@@H]1[C@H]2CC[C@]2(C)C(c3cccnc3)=CC[C@H]12	false (0)
CC=C1NC(=O)[C@H]2CSSCCC=C[C@H](CC(=O)N[C@H](C(C)C)C(=O)N2)OC(=O)[C@H](C(C)C)NC1=O	true (1)
CC(C)(Sc1cc(C(C)(C)C)c(O)c(C(C)(C)C)c1)Sc1cc(C(C)(C)C)c(O)c(C(C)(C)C)c1	false (0)
CC(C)(C#N)c1cc(Cn2cncn2)cc(C(C)(C)C#N)c1	false (0)
Nc1nc(Cl)nc2c1ncn2[C@H]1C[C@H](O)[C@@H](CO)O1	true (1)
CNCc1ccc(-c2[nH]c3cc(F)cc4c3c2CCNC4=O)cc1	false (0)
C=CC(=O)Nc1cccc(Nc2nc(NC3CCC(N(C)C)CC3)nc3c2ncn3C(C)C)c1 (configuration not stated)	true (1)
COc1cc2c(NC3CCN(C(C)C)CC3)nc(C3CCCCC3)nc2cc1OCCCN1CCCC1	true (1)
CC1(C)CC(=O)c2c(C(F)(F)F)nn(-c3ccc(C(N)=O)c(NC4CCC(O)CC4)c3)c2C1 (configuration not stated)	true (1)
C1Cc2[nH]nc(-c3nn[nH]n3)c2C1	false (0)
COc1cc2nc(N3CCN(C(=O)C4COc5ccccc5O4)CC3)nc(N)c2cc1OC (configuration not stated)	false (0)
Cn1cc(C2=C(c3c4n(c5ccccc35)CCC(CN)C4)C(=O)NC2=O)c2ccccc21 (configuration not stated)	true (1)
Nc1ncnc2c1nc(Cl)n2[C@@H]1O[C@H](CO)[C@@H](O)[C@@H]1O	true (1)
CC=CC1=C(C(=O)O)N2C(=O)[C@H](NC(=O)[C@H](N)c3ccc(O)cc3)[C@@H]2SC1	false (0)
CC[C@@]1(O)C(=O)OCc2c1cc1n(c2=O)Cc2cc3c(CN(C)C)c(O)ccc3nc2-1	true (1)
CNC(=O)c1nn(C)c2c1C(C)(C)Cc1cnc(Nc3ccc(N4CCN(C)CC4)cc3)nc1-2	true (1)
CCCCCCCCCCCCCCCC(=O)O[C@H]1[C@@H](O)[C@@H](O)[C@@H]([C@H](NC(=O)[C@@H]2C[C@@H](CCC)CN2C)[C@H](C)Cl)O[C@@H]1SC	false (0)
COc1cc2c(cc1OC)CC(=O)N(CCCN(C)C[C@H]1Cc3cc(OC)c(OC)cc31)CC2	false (0)
O=C(O)c1nc(=O)[nH]c(=O)[nH]1	false (0)
Cc1ccccc1-n1c(Cn2nc(-c3cccc(O)c3)c3c(N)ncnc32)nc2cccc(C)c2c1=O	false (0)
COc1ccc(F)c(F)c1C(=O)c1cnc(NC2CCN(S(C)(=O)=O)CC2)nc1N	true (1)
CC1(C)C(=O)N(CCN2CCC(C(=O)c3ccc(F)cc3)CC2)c2ccccc21	false (0)
O=C(OCC#CCSc1nnc(-c2cccc3ccccc23)o1)c1cc2ccccc2s1	false (0)
CCN(CC)CCCC(C)Nc1nc(C)cc(Nc2ccc3nc(C)cc(N)c3c2)n1 (configuration not stated)	false (0)
CC(C)(C)COc1ccc(-n2cc(C(=O)O)cn2)cc1C#N	false (0)
C[C@]12CC[C@@H]3c4ccc(O)cc4C[C@@H](CCCCCCCCCS(=O)CCCC(F)(F)C(F)(F)F)[C@H]3[C@H]1CC[C@H]2O (some centres not stated)	false (0)
Cc1cc(CS(=O)(=O)c2ccccc2)cc(OCc2ccc(CN3CCC[C@H]3CO)cc2)c1	true (1)
C[C@@]1(C(=O)Nc2ccc(F)nc2)CCCN1c1nc(Nc2cc(C3CC3)[nH]n2)c2cccn2n1	true (1)
CC1=CC(=O)c2ccccc2C1=O	true (1)
COc1ccccc1N1CCN(CCN(C(=O)C2CCCCC2)c2ccccn2)CC1	false (0)
C=C1C(=CC=C2CCC[C@]3(C)[C@@H]([C@H](C)CCCC(C)(C)O)CC[C@@H]23)C[C@@H](O)C[C@@H]1O	false (0)
Cn1cc(-c2ccc3nnc(C(F)(F)c4ccc5ncccc5c4)n3n2)cn1	false (0)
CC(=O)NCC(=O)N1[C@H]2CC[C@H]1c1cc(Nc3ncc(C(F)(F)F)c(NC4CCC4)n3)ccc12	true (1)
CC(C)c1cnn2c(NCc3ccccc3)cc(N[C@@H](CO)[C@H](O)CO)nc12	true (1)
